system: T1, DcR3 (UniProt O95407 30-300, limits assumed)
T1 construct: the construct is not described; also called decoy receptor DcR3; TNFRSF6B
T1 sequence (looked up): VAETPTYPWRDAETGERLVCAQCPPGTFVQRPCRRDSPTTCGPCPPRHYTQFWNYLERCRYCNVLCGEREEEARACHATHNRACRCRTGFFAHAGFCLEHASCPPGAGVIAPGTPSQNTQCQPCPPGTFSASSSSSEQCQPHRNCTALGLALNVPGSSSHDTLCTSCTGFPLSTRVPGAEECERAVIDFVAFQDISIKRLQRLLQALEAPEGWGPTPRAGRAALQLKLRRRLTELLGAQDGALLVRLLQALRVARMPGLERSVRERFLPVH
procedure.summary: ELISA, DcR3
parameter: EC50
Remember to quote the unit after the number.

# binder, EC50
records = [
    ("TL1W119 (His-TEV-TL1A S206F) (ligand, also called TL1W119 (S206F)) HHHHHHENLYFQGLKGQEFAPSHQQVYAPLRADGDKPRAHLTVVRQTPTQHFKNQFPALHWEHELGLAFTKNRMNYTNKFLLIPESGDYFIYSQVTFRGMTSECSEIRQAGRPNKPDSITVVITKVTDSYPEPTQLLMGTKSVCEVGFNWFQPIYLGAMFSLQEGDKLMVNVSDISLVDYTKEDKTFFGAFLL", "8.1 nM"),
]

# context switch: different binder, same EC50
Given TL1W2 (His-TEV-hTL1A 72-251) (ligand, Non-covalent trimer; entry holds the His-TEV tag; also called His-TL1A; His-TL1A (TL1W2)) HHHHHHENLYFQGLKGQEFAPSHQQVYAPLRADGDKPRAHLTVVRQTPTQHFKNQFPALHWEHELGLAFTKNRMNYTNKFLLIPESGDYFIYSQVTFRGMTSECSEIRQAGRPNKPDSITVVITKVTDSYPEPTQLLMGTKSVCEVGSNWFQPIYLGAMFSLQEGDKLMVNVSDISLVDYTKEDKTFFGAFLL , state its recorded EC50.
4.6 nM

Entry source: patent US20220056104A1
